- System: S. aureus ATCC 29213
- assay_overview: MIC (broth microdilution or agar dilution, CLSI)
- Type: cell-based
- test_parameters: Staphylococcus aureus, ATCC29213, S. aureus HAV#001, ATCC 29213, MP-549; read-out: MIC
Provide the recorded MIC for the entries that follow.
Provide only the numeric value, understood in µg/mL.

Asked: Item "CC(=O)NC[C@H]1CN(c2ccc(N3CCOCC3)c(F)c2)C(=O)O1" has what recorded MIC?
Given back: 2

Asked: Could you share which MIC value was measured for "Cc1onc(-c2ccccc2)c1C(=O)N[C@@H]1C(=O)N2[C@@H]1SC(C)(C)[C@@H]2C(=O)O" ?
Given back: 0.5

Asked: Given the molecule "CC[C@H]1OC(=O)[C@H](C)[C@@H](O[C@H]2C[C@@](C)(OC)[C@@H](O)[C@H](C)O2)[C@H](C)[C@@H](O[C@@H]2O[C@H](C)C[C@H](N(C)C)[C@H]2O)[C@](C)(O)C[C@@H](C)C(=O)[C@H](C)[C@@H](O)[C@]1(C)O" , what is its reported MIC?
Given back: 0.5

Asked: Field request: MIC | item: CSC1O[C@H]([C@H](NC(=O)[C@H]2NC[C@@H]3C[C@H](CC(C)C)CCO[C@H]32)[C@H](C)Cl)C(O)[C@@H](O)[C@H]1O (stereo partly drawn) [FSA-513018b]
Given back: 0.06

Asked: # input molecule: "CCC[C@@H]1C[C@@H](C(=O)N[C@@H]([C@H]2O[C@H](SC)[C@H](O)[C@@H](O)[C@H]2O)[C@@H](C)O)N(C)C1" ; wanted: its MIC
Given back: 0.5

Asked: // MIC lookup, key: "C[C@H]1COc2c(N3CCN(C)CC3)c(F)cc3c(=O)c(C(=O)O)cn1c23"
Given back: 0.25

* * *

- assay_overview: Mouse pharmacokinetics i.v. and p.o.
- Set-up: species or system mice
- test_parameters: in vivo, iv, 60 mg/kg, read-out: Vss
value_kind: Vd (L/kg)
Note: unit L/kg is implicit; provide only the numeric part.

Asked: So what's the measured Vd for this one? CSC1O[C@H]([C@H](NC(=O)[C@H]2NC[C@@H]3C[C@H](CC(C)C)CCO[C@H]32)[C@H](C)Cl)C(O)[C@@H](O)[C@H]1O (stereo partly shown) [FSA-513018b]
Given back: 12.5

* * *

- Test system: broad panel of different clinical isolates
- assay_overview: microbe, parasite or virus in culture
- Type: cell-based
- test_parameters: Escherichia coli, E. coli HAV#514; Clinical
value_kind: MIC (µg/mL)
Report as a plain number; the unit µg/mL is understood.

Asked: # MIC lookup, item CC(=O)NC[C@H]1CN(c2ccc(N3CCOCC3)c(F)c2)C(=O)O1 [Linezolid]
Given back: 32

Asked: What does the record list as MIC for CCC[C@@H]1C[C@@H](C(=O)N[C@@H]([C@H]2O[C@H](SC)[C@H](O)[C@@H](O)[C@H]2O)[C@H](C)Cl)N(C)C1 [Clindamycin, clindamycin, reference compound] ?
Given back: 128

* * *

- Test system: broad panel of different clinical isolates
- assay_overview: microbe, parasite or virus in culture
- Type: cell-based
- test_parameters: Acinetobacter baumannii, A. baumannii HAV#659; Clinical
Cut-off 20 µg/mL on MIC: below means TRUE, at or above means FALSE.

Asked: Answer whether the molecule "CN[C@H](CC(C)C)C(=O)N[C@H]1C(=O)N[C@@H](CC(N)=O)C(=O)N[C@H]2C(=O)N[C@H]3C(=O)N[C@H](C(=O)N[C@H](C(=O)O)c4cc(O)cc(O)c4-c4cc3ccc4O)[C@H](O)c3ccc(c(Cl)c3)Oc3cc2cc(c3O[C@@H]2O[C@H](CO)[C@@H](O)[C@H](O)[C@H]2O[C@H]2C[C@](C)(N)[C@H](O)[C@H](C)O2)Oc2ccc(cc2Cl)[C@H]1O" has MIC strictly less than 20 µg/mL
Given back: FALSE

Asked: Field: below-cutoff. Rule: recorded MIC strictly less than 20 µg/mL. Subject: "CC(=O)NC[C@H]1CN(c2ccc(N3CCOCC3)c(F)c2)C(=O)O1"
Given back: FALSE

Asked: Please let me know if "C[C@H]1COc2c(N3CCN(C)CC3)c(F)cc3c(=O)c(C(=O)O)cn1c23" shows MIC below 20 µg/mL.
Given back: TRUE

Asked: I'd appreciate it if you could check whether "CO/N=C(\C(=O)N[C@@H]1C(=O)N2C(C(=O)O)=C(CSc3nc(=O)c(=O)[nH]n3C)CS[C@H]12)c1csc(N)n1" has MIC smaller than 20 µg/mL.
Given back: FALSE

Asked: Hello, I'm reviewing records and need to know if MIC of CCC[C@@H]1C[C@@H](C(=O)N[C@@H]([C@H]2O[C@H](SC)[C@H](O)[C@@H](O)[C@H]2O)[C@H](C)Cl)N(C)C1 [Clindamycin, clindamycin, reference compound] is below 20 µg/mL. Could you check?
Given back: FALSE

Asked: Confirm or reject: MIC of "C[C@H]1c2cccc(O)c2C(=O)C2=C(O)[C@]3(O)C(=O)C(C(N)=O)=C(O)[C@@H](N(C)C)[C@@H]3[C@@H](O)[C@@H]21" lies strictly below 20 µg/mL
Given back: TRUE

Asked: Input CSC1O[C@H]([C@H](NC(=O)[C@H]2NC[C@@H]3C[C@H](CC(C)C)CCO[C@H]32)[C@H](C)Cl)C(O)[C@@H](O)[C@H]1O (stereo partly shown) [FSA-513018b] ; condition: MIC strictly below 20 µg/mL. Does it hold?
Given back: TRUE

* * *

- Test system: broad panel of different clinical isolates
- assay_overview: microbe, parasite or virus in culture
- Type: cell-based
- test_parameters: Streptococcus pneumoniae, S. pneumoniae HAV#356; Clinical
value_kind: MIC (µg/mL)
Form entry: value (µg/mL) — number only.

Asked: Which MIC reading was recorded for the molecule CSC1O[C@H]([C@H](NC(=O)[C@H]2NC[C@@H]3C[C@H](CC(C)C)CCO[C@H]32)[C@H](C)Cl)C(O)[C@@H](O)[C@H]1O (some centres unmarked) [FSA-513018b] ?
Given back: 0.25

Asked: I am curious: what MIC value has been reported for "CO/N=C(\C(=O)N[C@@H]1C(=O)N2C(C(=O)O)=C(CSc3nc(=O)c(=O)[nH]n3C)CS[C@H]12)c1csc(N)n1" ?
Given back: 1

Asked: Could you share which MIC value was measured for "CN[C@H](CC(C)C)C(=O)N[C@H]1C(=O)N[C@@H](CC(N)=O)C(=O)N[C@H]2C(=O)N[C@H]3C(=O)N[C@H](C(=O)N[C@H](C(=O)O)c4cc(O)cc(O)c4-c4cc3ccc4O)[C@H](O)c3ccc(c(Cl)c3)Oc3cc2cc(c3O[C@@H]2O[C@H](CO)[C@@H](O)[C@H](O)[C@H]2O[C@H]2C[C@](C)(N)[C@H](O)[C@H](C)O2)Oc2ccc(cc2Cl)[C@H]1O" ?
Given back: 2

Asked: Looking for the measured MIC of "CC(=O)NC[C@H]1CN(c2ccc(N3CCOCC3)c(F)c2)C(=O)O1" , can you help?
Given back: 4

Asked: Entry "C[C@H]1c2cccc(O)c2C(=O)C2=C(O)[C@]3(O)C(=O)C(C(N)=O)=C(O)[C@@H](N(C)C)[C@@H]3[C@@H](O)[C@@H]21" has what MIC?
Given back: 2

Asked: Please give the measured MIC for this molecule: "C[C@H]1COc2c(N3CCN(C)CC3)c(F)cc3c(=O)c(C(=O)O)cn1c23"
Given back: 0.25

* * *

- System: broad panel of different clinical isolates
- assay_overview: microbe, parasite or virus in culture
- Type: cell-based
- test_parameters: Enterococcus faecalis, S. faecalis 5074, Line R
value_kind: MIC
Numeric answer plus unit only.

Asked: So what's the measured MIC for this one? CO/N=C(\C(=O)N[C@@H]1C(=O)N2C(C(=O)O)=C(CSc3nc(=O)c(=O)[nH]n3C)CS[C@H]12)c1csc(N)n1 [Ceftriaxone]
Given back: 256 µg/mL

* * *

- assay_overview: Mouse pharmacokinetics i.v. and p.o.
- Set-up: species or system mice
- test_parameters: in vivo, iv, 60 mg/kg
value_kind: MRT (h)
Output spec: scalar in h, unitless text.

Asked: Item CSC1O[C@H]([C@H](NC(=O)[C@H]2NC[C@@H]3C[C@H](CC(C)C)CCO[C@H]32)[C@H](C)Cl)C(O)[C@@H](O)[C@H]1O (stereo partly shown) [FSA-513018b] has what recorded MRT?
Given back: 1.2

* * *

- Test system: broad panel of different clinical isolates
- assay_overview: microbe, parasite or virus in culture
- Format: cell-based
- test_parameters: Staphylococcus epidermidis, S. epidermidis HAV# 275 Clinical; cfr
- Method: Minimum inhibitory concentrations (MICs) were determined by broth microdilution method or agar dilution method following the Clinical and Laboratory Standards Institute guidelines. Standard bacterial strains were obtained from American Type Culture Collection (ATCC). Other bacterial strains were obtained from hospitals and commercial sources, so noted in Table 11. […] Specialized procedures were employed for streptococcal and anaerobic strains. […]
Exercise: for every item that follows, state its recorded MIC.

Asked: For CC(=O)NC[C@H]1CN(c2ccc(N3CCOCC3)c(F)c2)C(=O)O1 [Linezolid] , what is its reported MIC?
Given back: > 64 µg/mL

Asked: # input compound: CSC1O[C@H]([C@H](NC(=O)[C@H]2NC[C@@H]3C[C@H](CC(C)C)CCO[C@H]32)[C@H](C)Cl)C(O)[C@@H](O)[C@H]1O (stereo partly drawn) [FSA-513018b] ; wanted: its MIC
Given back: 8 µg/mL

Asked: Recorded MIC for C[C@H]1COc2c(N3CCN(C)CC3)c(F)cc3c(=O)c(C(=O)O)cn1c23 [Levofloxacin] , please?
Given back: 16 µg/mL

Asked: Given CCC[C@@H]1C[C@@H](C(=O)N[C@@H]([C@H]2O[C@H](SC)[C@H](O)[C@@H](O)[C@H]2O)[C@H](C)Cl)N(C)C1 [Clindamycin, clindamycin, reference compound] , state its recorded MIC.
Given back: > 128 µg/mL

Asked: Which MIC value is on record for CO/N=C(\C(=O)N[C@@H]1C(=O)N2C(C(=O)O)=C(CSc3nc(=O)c(=O)[nH]n3C)CS[C@H]12)c1csc(N)n1 [Ceftriaxone] ?
Given back: > 128 µg/mL

Asked: What value of measured MIC is listed for O=C(N[C@H](CO)[C@H](O)c1ccc([N+](=O)[O-])cc1)C(Cl)Cl [Chloramphenicol] ?
Given back: > 128 µg/mL
